Numbers sourced from ChEMBL document CHEMBL1133099.

TEST PROTOCOL: pKa1 values were determined by potentiometric titrations.
Type: physicochemical
RECORDED CONDITIONS: read-out: pKa1
Residues, ends and D or L forms follow the SMILES beside them.
MEASUREMENT TYPE: pKa
The answer should be a number; do not append a unit.

Ask | Give a short answer stating reported pKa for CC(=O)N[C@@H](CC(=O)O)C(=O)N[C@@H](CCC(N)=O)C(=O)N[C@@H](CC(C)C)C(=O)N[C@@H](Cc1ccccc1)C(N)=O (Ac-DQLF-NH2) .
Reply | 3.97

* * *

Kindly supply the reported pKa values for the records listed here.
TEST PROTOCOL: Ionization constant (pKa1) values were determined by potentiometric titrations.
Format: physicochemical
RECORDED CONDITIONS: read-out: pKa1
Residues, ends and D or L forms follow the SMILES beside them.
The answer should be a number; do not append a unit.

Ask | Give a short answer stating reported pKa for CC(=O)NCC(=O)N(C)[C@@H](Cc1ccccc1)C(=O)N[C@@H](CCCCN)C(=O)N[C@@H](CC(=O)O)C(N)=O (HELM PEPTIDE1{[ac].G.[meF].K.D.[am]}$$$$V2.0) .
Reply | 3.78

Ask | Give a short answer stating reported pKa for CC(=O)NCC(=O)N[C@@H](CC(C)C)C(=O)N[C@@H](CC(=O)O)C(=O)N(C)[C@@H](Cc1ccccc1)C(N)=O (HELM PEPTIDE1{[ac].G.L.D.[meF].[am]}$$$$V2.0) .
Reply | 3.93

Ask | Give a short answer stating reported pKa for CC(=O)N[C@@H](CCCCN)C(=O)N(C)CC(=O)N[C@@H](Cc1ccc(O)cc1)C(=O)N(C)[C@@H](CC(=O)O)C(N)=O (HELM PEPTIDE1{[ac].K.[Sar].Y.[meD].[am]}$$$$V2.0) .
Reply | 3.6

* * *

TEST PROTOCOL: Ionization constant (pKa2) values were determined by potentiometric titrations.
Format: physicochemical
RECORDED CONDITIONS: read-out: pKa2
Residues, ends and D or L forms follow the SMILES beside them.
MEASUREMENT TYPE: pKa

Ask | Give a short answer stating reported pKa for CC(=O)N[C@@H](CCCCN)C(=O)N(C)CC(=O)N[C@@H](Cc1ccc(O)cc1)C(=O)N(C)[C@@H](CC(=O)O)C(N)=O (HELM PEPTIDE1{[ac].K.[Sar].Y.[meD].[am]}$$$$V2.0) .
Reply | 9.69

Ask | Give a short answer stating reported pKa for CC(=O)NCC(=O)N(C)[C@@H](Cc1ccccc1)C(=O)N[C@@H](CCCCN)C(=O)N[C@@H](CC(=O)O)C(N)=O (HELM PEPTIDE1{[ac].G.[meF].K.D.[am]}$$$$V2.0) .
Reply | 10.3

* * *

TEST PROTOCOL: Distribution coefficient between n-octanol and hanks buffered saline solution
Format: physicochemical
Residues, ends and D or L forms follow the SMILES beside them.
MEASUREMENT TYPE: logD
The answer should be a number; do not append a unit.

Ask | Give a short answer stating reported logD for CC(=O)N[C@@H](Cc1ccccc1)C(=O)N[C@@H](CC(C)C)C(=O)N[C@H](C(=O)N(C)[C@@H](CC(C)C)C(N)=O)C(C)C (HELM PEPTIDE1{[ac].F.L.V.[meL].[am]}$$$$V2.0) .
Reply | 2.42

Ask | Give a short answer stating reported logD for CC(=O)N[C@@H](Cc1ccccc1)C(=O)N1CCC[C@H]1C(=O)N[C@@H](Cc1ccccc1)C(=O)N[C@@H](Cc1ccc(O)cc1)C(N)=O (Ac-FPFY-NH2) .
Reply | 1.64

Ask | Give a short answer stating reported logD for CC(=O)N[C@@H](CCCCN)C(=O)N(C)[C@@H](Cc1ccccc1)C(=O)NCC(=O)N(C)[C@@H](CC(C)C)C(N)=O (HELM PEPTIDE1{[ac].K.[meF].G.[meL].[am]}$$$$V2.0) .
Reply | -1.33

Ask | Give a short answer stating reported logD for CC(=O)N[C@@H](CO)C(=O)N(C)[C@@H](Cc1ccccc1)C(=O)NCC(=O)NCC(N)=O (HELM PEPTIDE1{[ac].S.[meF].G.G.[am]}$$$$V2.0) .
Reply | -1.51

Ask | Give a short answer stating reported logD for CC(=O)N[C@@H](Cc1ccc(O)cc1)C(=O)NCC(=O)NCC(=O)N[C@@H](CCC(N)=O)C(N)=O (Ac-YGGQ-NH2) .
Reply | -2.59

Ask | Give a short answer stating reported logD for CC(=O)NCC(=O)N(C)CC(=O)N[C@@H](CC(C)C)C(=O)N[C@@H](Cc1ccccc1)C(N)=O (HELM PEPTIDE1{[ac].G.[Sar].L.F.[am]}$$$$V2.0) .
Reply | 0.05
